Molecular target: RELA (p65) subunit of heterodimer;p52 subunit (Homo sapiens;Homo sapiens, UniProt Q04206;Q00653 1-307;4-332)
Sequence (Q04206 1-307, chain 1 of 2): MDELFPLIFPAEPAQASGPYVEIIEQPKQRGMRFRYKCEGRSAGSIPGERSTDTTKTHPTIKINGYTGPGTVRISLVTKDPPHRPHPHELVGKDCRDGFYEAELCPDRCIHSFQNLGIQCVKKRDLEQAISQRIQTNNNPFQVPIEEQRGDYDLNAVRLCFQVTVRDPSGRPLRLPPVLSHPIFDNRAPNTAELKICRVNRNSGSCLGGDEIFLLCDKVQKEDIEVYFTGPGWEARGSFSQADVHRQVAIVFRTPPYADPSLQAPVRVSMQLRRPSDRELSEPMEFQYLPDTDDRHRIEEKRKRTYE
Sequence (Q00653 4-332, chain 2 of 2): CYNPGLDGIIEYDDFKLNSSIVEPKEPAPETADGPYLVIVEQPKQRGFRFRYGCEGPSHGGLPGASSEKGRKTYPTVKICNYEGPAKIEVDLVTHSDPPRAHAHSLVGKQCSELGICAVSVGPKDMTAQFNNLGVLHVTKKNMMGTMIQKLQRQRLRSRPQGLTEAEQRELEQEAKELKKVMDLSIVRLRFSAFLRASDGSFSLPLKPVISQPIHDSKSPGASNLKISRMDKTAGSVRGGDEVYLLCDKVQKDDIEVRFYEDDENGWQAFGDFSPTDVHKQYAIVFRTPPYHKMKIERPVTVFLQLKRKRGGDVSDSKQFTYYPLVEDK
Assay: protein binding microarray; high values mean tight binding
Details: dsDNA, one strand shown
Listed here are sequences together with their documented binding signal.

[
  {
    "SEQUENCE INPUT": "CAAGACGCCCT",
    "U": "z-score",
    "binding signal": -0.966
  },
  {
    "SEQUENCE INPUT": "GGGAACGCCCT",
    "U": "z-score",
    "binding signal": 0.418
  },
  {
    "SEQUENCE INPUT": "AGAATGCTCCC",
    "U": "z-score",
    "binding signal": -0.621
  },
  {
    "SEQUENCE INPUT": "AAAATTTTCCT",
    "U": "z-score",
    "binding signal": 0.225
  },
  {
    "SEQUENCE INPUT": "CGAGAATCCCT",
    "U": "z-score",
    "binding signal": 0.284
  },
  {
    "SEQUENCE INPUT": "CAGTAATTCCC",
    "U": "z-score",
    "binding signal": 0.865
  },
  {
    "SEQUENCE INPUT": "CAAAACACCCC",
    "U": "z-score",
    "binding signal": 0.701
  },
  {
    "SEQUENCE INPUT": "CAGATGACCCC",
    "U": "z-score",
    "binding signal": -0.386
  },
  {
    "SEQUENCE INPUT": "GAGGGATTCCT",
    "U": "z-score",
    "binding signal": 0.589
  },
  {
    "SEQUENCE INPUT": "CGGTACTCCCT",
    "U": "z-score",
    "binding signal": 0.425
  },
  {
    "SEQUENCE INPUT": "AAAGACTCCCT",
    "U": "z-score",
    "binding signal": 0.161
  },
  {
    "SEQUENCE INPUT": "GAGAACTCCCC",
    "U": "z-score",
    "binding signal": 1.05
  },
  {
    "SEQUENCE INPUT": "GAAGGCATCCT",
    "U": "z-score",
    "binding signal": -1.21
  },
  {
    "SEQUENCE INPUT": "CAGTGGGTCCT",
    "U": "z-score",
    "binding signal": -0.79
  },
  {
    "SEQUENCE INPUT": "GGGGAATTCCC",
    "U": "z-score",
    "binding signal": 3.73
  },
  {
    "SEQUENCE INPUT": "GAAGTTGTCCT",
    "U": "z-score",
    "binding signal": -0.716
  },
  {
    "SEQUENCE INPUT": "CGAGGGTTCCC",
    "U": "z-score",
    "binding signal": -0.377
  },
  {
    "SEQUENCE INPUT": "CAGAACCTCCT",
    "U": "z-score",
    "binding signal": -0.938
  },
  {
    "SEQUENCE INPUT": "AGAGTCATCCT",
    "U": "z-score",
    "binding signal": -0.868
  },
  {
    "SEQUENCE INPUT": "GAAAAATTCCT",
    "U": "z-score",
    "binding signal": 0.117
  },
  {
    "SEQUENCE INPUT": "GGGGGCGCCCT",
    "U": "z-score",
    "binding signal": 1.58
  },
  {
    "SEQUENCE INPUT": "GAAGGCCCCCC",
    "U": "z-score",
    "binding signal": 0.62
  },
  {
    "SEQUENCE INPUT": "AAATACGTCCC",
    "U": "z-score",
    "binding signal": 0.183
  },
  {
    "SEQUENCE INPUT": "GGGTTGACCCT",
    "U": "z-score",
    "binding signal": -0.336
  },
  {
    "SEQUENCE INPUT": "GGGTTTGCCCT",
    "U": "z-score",
    "binding signal": 0.423
  },
  {
    "SEQUENCE INPUT": "GGAGTTCCCCT",
    "U": "z-score",
    "binding signal": 2.79
  },
  {
    "SEQUENCE INPUT": "GAATTCGCCCT",
    "U": "z-score",
    "binding signal": -0.517
  },
  {
    "SEQUENCE INPUT": "AAGGTCACCCT",
    "U": "z-score",
    "binding signal": -0.928
  },
  {
    "SEQUENCE INPUT": "CAAGGCCCCCT",
    "U": "z-score",
    "binding signal": 0.254
  },
  {
    "SEQUENCE INPUT": "CGAAGCATCCT",
    "U": "z-score",
    "binding signal": -1.09
  },
  {
    "SEQUENCE INPUT": "CAAGAGTCCCC",
    "U": "z-score",
    "binding signal": 1.06
  },
  {
    "SEQUENCE INPUT": "AGAAAAGCCCC",
    "U": "z-score",
    "binding signal": 1.76
  },
  {
    "SEQUENCE INPUT": "AGAGGTTCCCC",
    "U": "z-score",
    "binding signal": 1.33
  },
  {
    "SEQUENCE INPUT": "AGGGTTGCCCT",
    "U": "z-score",
    "binding signal": -0.727
  },
  {
    "SEQUENCE INPUT": "GGAAGCCTCCC",
    "U": "z-score",
    "binding signal": -0.721
  },
  {
    "SEQUENCE INPUT": "GAAGTTTCCCC",
    "U": "z-score",
    "binding signal": 1.99
  },
  {
    "SEQUENCE INPUT": "AGAAAATCCCT",
    "U": "z-score",
    "binding signal": 1.37
  },
  {
    "SEQUENCE INPUT": "AGAGTGTCCCT",
    "U": "z-score",
    "binding signal": 0.604
  },
  {
    "SEQUENCE INPUT": "AAAGTGGTCCC",
    "U": "z-score",
    "binding signal": -0.267
  },
  {
    "SEQUENCE INPUT": "CAATAGCCCCT",
    "U": "z-score",
    "binding signal": 0.808
  },
  {
    "SEQUENCE INPUT": "AGATGGTCCCC",
    "U": "z-score",
    "binding signal": 0.172
  },
  {
    "SEQUENCE INPUT": "AAGTTTCTCCC",
    "U": "z-score",
    "binding signal": 0.17
  }
]

Value source: paper PMC3218832
